The reported numbers originate from PubChem BioAssay (NCI).

experiment: NCI Yeast Anticancer Drug Screen. Data for the sgs1 mgt1 strain (AID 161);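 also: 0% = growth of cultures given vehicle only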; details: S. cerevisiae sgs1 mgt1 strain, at 50.0 µM (retest, dose inferred, filed as 5.0)
This is part of a sample that, as a whole, favours compounds with a hit. Of some 79,000 tested, about 15% had one in any assay. Activity calls are given as the source filed them. Rule as the data show it: active = growth inhibition above about 70%; inactive = the rest.
Outcome codes: t = active, f = inactive

{"columns": ["molecule", "cat"],
 "data": [
  ["O=[N+]([O-])c1cc(Cl)cc2c1nc(NCCO)c1ccccc12", "t"],
  ["CC(=O)Nc1ccc2c(c1)C(S)c1ccccc1-2 (configuration not stated)", "f"],
  ["CC(=O)c1c(O)c(C)c(O)c2c1OC1=CC(=O)c3c(C)noc3C12C (configuration not stated)", "f"],
  ["O=C1C=CC(=O)N1c1ccccc1 (tested in a mixture with another compound)", "f"],
  ["Cc1c2cnccc2c(C)c2c1c1ccccc1n2CCCN", "f"],
  ["O=C1c2cccc3cc4ccccc4c(c23)C(=O)N1CCCNCCNCCCN1C(=O)c2cccc3cc4ccccc4c(c23)C1=O", "t"],
  ["O=C(CC(=O)c1ccccc1NC1=Cc2ccccc2C(=O)C1=O)C(=O)NC1=C(Cl)C(=O)c2ccccc2C1=O", "t"]
]}

---

assay: NCI Yeast Anticancer Drug Screen. Data for the bub3 strain (AID 167); conditions: S. cerevisiae bub3 mutant strain, at 5.0 µM (retest, dose inferred, filed as 0.5), active compounds read high
The panel holds about 79,000 compounds, 15% with a hit somewhere; the sample as a whole holds those more often.
endpoint: growth inhibition (%)

{"columns": ["compound", "endpoint", "test-value"],
 "data": [
  ["O=C1/C(=C/c2cccc(Br)c2)CCc2ccccc21", "growth inhibition", 44],
  ["COc1ccccc1C(=O)[O][Sn]([c]1ccccc1)([c]1ccccc1)[c]1ccccc1", "growth inhibition", 100],
  ["CC1CCC2(C)C(CC=C(C=O)C2(O)C=O)C12CO2 (stereo not drawn)", "growth inhibition", 99]
]}

---

test: NCI Yeast Anticancer Drug Screen. Data for the sgs1 mgt1 strain (AID 161);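 also: 0% = growth of cultures given vehicle only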; conditions: S. cerevisiae sgs1 mgt1 strain, at 50.0 µM (retest, dose inferred, filed as 5.0)
Compounds without any hit were thinned out: in the full panel of roughly 79,000, 15% have a hit. Active and inactive are the calls of the source. Cut-off read from the data, not from the text of the source: active = growth inhibition above about 70%; inactive = the rest. Where a SMILES comes first, the peptide text is derived from it. The star is where a group is joined. OSu = O=C1CCC(=O)N1O*; OBn = c1ccc(CO*)cc1; Bn = c1ccc(C*)cc1
Outcome codes: active, inactive

{"columns": ["compound", "cat"],
 "data": [
  ["CC(C)(CCCCC(C)(C)NCC1COc2ccccc2O1)NCC1COc2ccccc2O1 (centres undefined)", "inactive"],
  ["CC1CCCC(C(O)(C(=O)O)C2CCCC(C)C2)C1 (centres undefined)", "active"],
  ["COc1ccc2c(c1)C1(C)CCCC(C)(C(=O)O)C1C(Br)C2=O (centres undefined)", "active"],
  ["C/C(=N\\NC(=S)N1CCC(C)CC1)c1cccc2cccnc12", "active"],
  ["CC(C)CC(NC(=O)C(N)CCC(=O)OCc1ccccc1)C(=O)NC(COCc1ccccc1)C(=O)NC(Cc1ccccc1)C(=O)ON1C(=O)CCC1=O (centres undefined) (H-E(OBn)LS(Bn)F-OSu; configuration not given here)", "active"],
  ["O=[N+]([O-])c1ccc(-c2cccc(Cl)c2)c([N+](=O)[O-])c1", "active"],
  ["C/C(=N/NC(N)=S)C(CN(C)C)C(C1=C(O)c2ccccc2OC1)c1ccccc1 (centres undefined)", "inactive"],
  ["C[C@]12CC[C@H](O)CC1=CC[C@@H]1C2CC[C@]2(C)NC(=O)CCC12 (some centres undefined)", "inactive"],
  ["Cc1cccc(/C=N/NC(=S)Nc2ccc(Cl)cc2)n1", "active"],
  ["CC1(C)CC(=O)C(c2ccccc2[N+](=O)[O-])=C(O)C1", "inactive"],
  ["COc1ccc(-n2cc(-c3ccc(Cl)cc3)c3c(N)ncnc32)cc1", "active"],
  ["O=C(CCl)OCC(=O)c1ccc(-c2ccccc2)cc1", "active"],
  ["Cc1cc(NC(=S)SC(C)C)ccc1Br", "active"],
  ["Nc1ccc(SCCCc2c(N)nc(N)nc2N)cc1", "inactive"]
]}
